# Test system: Aldehyde dehydrogenase 1A1 (Homo sapiens)
# Method notes: qHTS for Inhibitors of the Aldehyde Dehydrogenase Family (ALDH1A1) Confirmatory screens (AID 2061316); further: nearly all actives have a fitted effect of over 65% in size
# Particulars: ALDH inhibition qHTS; series mostly up to 47.3 µM
Results filed as inconclusive are left out. The source made the active and inactive calls. The call rests on the fitted dose curve; in most records, active means well fitted inhibition curve with a large enough effect; inconclusive means small, poorly fitted or top-dose-only effect; inactive means no such curve, though single readings can be large or run the other way.
Allowed answers: 1 = active, 0 = inactive

Input line: Test call for this molecule, please: `COc1cc2c(cc1NS(=O)(=O)c1ccc(Br)cc1C)n(C)c(=O)n2C`
Output line: 0

Input line: Test call for this molecule, please: `O=C(Nc1ccc(Cl)c(Cl)c1)Nc1nnc(NC2CCNCC2)s1`
Output line: 0

Input line: Test call for this molecule, please: `COc1ccc2c(c1)CCc1sc(NC(=O)c3ccc(Cl)cc3)nc1-2`
Output line: 1

Input line: Test call for this molecule, please: `N#Cc1ccc(-c2cnc3[nH]cc(NC(=O)c4cccnc4)c3c2)cc1`
Output line: 1

Input line: Test call for this molecule, please: `Cc1cc(N=Nc2ccc(S(=O)(=O)Nc3ccccn3)cc2)c(N)cc1O`
Output line: 1

Input line: Test call for this molecule, please: `O=C(O)c1cc(=O)c2c(Cl)cc(Cl)cc2[nH]1`
Output line: 0

Input line: Test call for this molecule, please: `Cc1ccc2nc3sc(C(=O)NCCN4CCOCC4)cc3cc2c1`
Output line: 0

Input line: Test call for this molecule, please: CC(=O)NC(c1ccco1)c1cc(Cl)c2ccc(N3CCCCC3)nc2c1O (stereo not given)
Output line: 1

Input line: Test call for this molecule, please: `CCOc1ccc(NC(=O)CSc2nc3ccccc3nc2N2CCOCC2)cc1`
Output line: 0

Input line: Test call for this molecule, please: `CC1(C)S[C@@H]2[C@H](NC(=O)[C@H](NC(=O)N3CCN(S(C)(=O)=O)C3=O)c3ccccc3)C(=O)N2[C@H]1C(=O)O`
Output line: 0
